// provenance: PubChem BioAssay

- assay-text: S. cerevisiae RM11-1a growth modifiers, primary screen, strain RM11-1a, OD600, basal, 24 h (AID 1177);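 note: cultures grown under basal conditions with no added stressor; test concentration not given here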
- protocol-conditions: OD600, 24 h, higher = more signal, called active from +8 up or from −8 down
Hi, to clarify the labels: true (1) covers z-score from 0.3 upward, false (0) covers anything below 0.3.

{"columns": ["chemical-structure", "answer-label"],
 "data": [
  ["C=C[C@H](C)[C@@H](OC(=O)Nc1ccc(SC)cc1)c1ccc(OCCO)cc1", "true (1)"],
  ["COC(=O)C[C@H]1O[C@]2(C(=O)N(C)c3ccccc32)[C@@H](C)[C@@H]1[Si](C)(C)c1ccccc1", "false (0)"],
  ["COc1ccc([Si](C)(C)[C@H]2[C@H](CC(=O)N(CCO)Cc3ccccc3)O[C@@]3(C(=O)N(c4ccccc4)c4ccccc43)[C@@H]2C)cc1", "false (0)"]
]}

Q: Check this compound for z-score at or above 0.3: C[C@]1(C(=O)NC2CC2)c2ccccc2C(=O)N(Cc2cc(F)cc(C(F)(F)F)c2)[C@H]1c1ccc(CO)cc1
Result: true (1)

Q: Check this compound for z-score at or above 0.3: COC(=O)[C@@]1(Cc2ccc(F)cc2)[C@H]2c3cc(C(=O)N(C)C)n(CCF)c3C[C@H]2CN1C(=O)c1ccccc1
Result: false (0)

Q: Check this compound for z-score at or above 0.3: CO[C@H]1O[C@H](CO)[C@@H](OC(=O)Nc2cccc(F)c2)[C@H](OC(=O)c2cc3ccccc3[nH]2)[C@H]1OC(=O)c1cc2ccccc2[nH]1
Result: false (0)

Q: Check this compound for z-score at or above 0.3: CCOC(=O)C[C@H]1[C@H](OC(=O)c2ccc(-c3ccccc3)cc2)[C@@H](NC(=O)c2ccc(-c3ccccc3)cc2)c2cc(OCCCO)ccc2N1C(=O)c1ccccc1
Result: true (1)

----------
- assay-text: E. coli growth modulation, two-sided OD650, primary screen, E. coli filamentation project, strain DRC41, 24 h (AID 1093);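 note: MC1000 strain lacking acrAB efflux and sulA so SOS filamentation is blocked; test concentration not given here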
- protocol-conditions: OD650, 24 h, higher = more signal, called active from +8 up or from −8 down
Each record's class is read off its z-score using these ranges: band A (below -0.07), band B (-0.07 to below 0.5), band C (0.5 or more)

Below, 5 compounds whose answers are already recorded.
{"columns": ["compound", "answer-label"],
 "data": [
  ["CO[C@H]1O[C@H](CO)[C@@H](OC(=O)Nc2cccc(F)c2)[C@H](OC(=O)Nc2ccc3c(c2)OCO3)[C@@H]1OC(=O)Nc1ccc2c(c1)OCO2", "band A"],
  ["C[C@]1(C(=O)O)c2ccccc2C(=O)N(Cc2cc(C(F)(F)F)cc(C(F)(F)F)c2)[C@H]1c1ccc(CO)cc1", "band B"],
  ["O=C1c2ccccc2[C@@]2(Cc3ccccc3N(CC(F)(F)F)C2=O)[C@H](c2ccc(CO)cc2)N1Cc1ccccc1", "band A"],
  ["CC[C@@H](O[Si](C#C[Si](C(C)C)(C(C)C)C(C)C)(C(C)C)C(C)C)c1cn([C@H](CO)Cc2ccccc2)nn1", "band C"],
  ["O=C1O[C@@H](c2ccccc2)[C@@H](c2ccccc2)N2[C@@H](c3ccccc3OCCO)[C@]3(C(=O)Nc4ccc(C#CC5(O)CCCCCC5)cc43)[C@@H](C(=O)N3CCCCCCC3)[C@H]12", "band C"]
]}

Please examine the following record next.
Q: # bin lookup: classify C[N+](C)(C)CCCC[C@@H]1NC(=O)[C@H]2C[C@@H](C(=O)NCCCCCN)[C@@H](c3ccc(O)cc3)N2C1=O by its z-score
Result: band A
